target.entity: BRD4 BD2 (Homo sapiens, UniProt O60885)
assay.name: AlphaScreen binding assay, BRD4 Bromodomain 2
pIC50: −log10 of the molar value.
recorded.endpoint: pIC50

CC(=O)N1c2ccc(-c3ccc(S(C)(=O)=O)cc3)cc2N(C(=O)c2ccc(CN(C)C)o2)C[C@@H]1C | 6.30 to 7.30
CC(=O)N1c2ccc(-c3cnn(CCO)c3)cc2N(C(=O)Oc2ccc(F)cc2F)C[C@@H]1C | 6.30 to 7.30
CC(=O)N1c2ccc(-c3ccc(S(C)(=O)=O)cc3)cc2N(C(=O)c2ccco2)C[C@@H]1C | > 7.30
CC(=O)N1c2ccc(-c3cnn(C(C)(C)CO)c3)cc2N(C(=O)OC(C)C)C[C@@H]1C | > 7.30

* * *

target.entity: BRD4 BD1 (Homo sapiens, UniProt O60885)
assay.name: AlphaScreen binding assay, BRD4 Bromodomain 1
pIC50: −log10 of the molar value.
In this section, each of the compounds is paired with its reported pIC50.
recorded.endpoint: pIC50

COC(=O)N1c2ccc(-c3cnn(C[C@@H]4CCNC4)c3)cc2N(C(=O)OC(C)C)C[C@@H]1C | 5.00 to 6.00
CC(=O)N1c2ccc(-c3cnn(C4CCNCC4)c3)cc2N(C(=O)OC2CCC(F)(F)CC2)C[C@@H]1C | 6.00 to 7.00
CC(=O)N1c2ccc(-c3ccc(S(C)(=O)=O)cc3)cc2N(C(=O)C2CCC2)C[C@@H]1C | 5.00 to 6.00
CC(C)OC(=O)N1C[C@H](C)N(C(=O)C2CC2)c2ccc(-c3ccc(C(=O)N4CC[C@H](N(C)C)C4)cc3)cc21 | 6.00 to 7.00
CC(=O)N1c2ccccc2N(C(=O)c2cccs2)C[C@@H]1C | < 5.00
CC(=O)N1c2ccc(-c3cnn(C(C)C)c3)cc2N(C(=O)OC(C)C)C[C@@H]1C | 6.00 to 7.00
CC(=O)N1c2ccc(-c3ccc(C(=O)N4CCNC(=O)C4)cc3)cc2N(C(=O)OC(C)C)C[C@@H]1C | 6.00 to 7.00
CC(=O)N1c2ccc(-c3cccc(S(=O)(=O)C4CC4)c3)cc2N(C(=O)OC(C)C)C[C@@H]1C | 6.00 to 7.00
CC(=O)N1c2ccc(-c3ccc(C(=O)N(C)CCN(C)C)cc3)cc2N(C(=O)OC(C)C)C[C@@H]1C | 6.00 to 7.00
CC(=O)N1c2ccc(-c3cnn(C4CC4)c3)cc2N(C(=O)Oc2ccc3nc(C)ccc3c2)C[C@@H]1C | 6.00 to 7.00
COc1ccccc1CC(=O)N1C[C@H](C)N(C(C)=O)c2ccccc21 | < 5.00
CC(=O)N1c2ccc(-c3ccc4c(c3)OCCO4)cc2N(C(=O)c2ccco2)C[C@@H]1C | 6.00 to 7.00
CC(C)OC(=O)N1C[C@H](C)N(C(=O)C2CC2)c2ccc(-c3ccc(C(=O)N4CC(O)C4)cc3)cc21 | 6.00 to 7.00
COc1ccccc1OC(=O)N1C[C@H](C)N(C(C)=O)c2ccc(-c3ccc(S(C)(=O)=O)cc3)cc21 | 6.00 to 7.00
CC(=O)N1c2ccc(-c3ccc(F)c(S(C)(=O)=O)c3)cc2N(C(=O)C2CC2)C[C@@H]1C | 5.00 to 6.00
CC(=O)N1c2ccc(-c3ccc(N4CCOCC4)cc3)cc2N(C(=O)OC2CCOCC2)C[C@@H]1C | 6.00 to 7.00
CC(=O)N1c2ccccc2N(C(=O)c2ccncc2)C[C@@H]1C | < 5.00
CC(=O)N1c2ccc(-c3cnn(C4CC4)c3)cc2N(C(=O)OC2COC2)C[C@@H]1C | 6.00 to 7.00
CC(=O)N1c2ccc(-c3ccc(S(C)(=O)=O)cc3)cc2N(C(=O)c2cc(C)[nH]n2)CC1C (centres unmarked) | 5.00 to 6.00
CC(=O)N1c2ccccc2N(S(=O)(=O)Cc2ccc(C#N)cc2)C[C@@H]1C | < 5.00
CCN(CC)S(=O)(=O)c1cc(-c2ccc3c(c2)N(C(=O)OC2CCOCC2)C[C@H](C)N3C(C)=O)ccc1OC | 6.00 to 7.00
CCOC(=O)N1C[C@H](C)N(C(C)=O)c2ccc(-c3ccc(S(=O)(=O)C4CC4)cc3)cc21 | 6.00 to 7.00
CC(=O)N1c2ccc(-c3cnn(CCO)c3)cc2N(C(=O)OCCC(F)(F)F)C[C@@H]1C | 5.00 to 6.00
CCNC(=O)N1C[C@H](C)N(C(C)=O)c2ccc(-c3ccc(S(C)(=O)=O)cc3)cc21 | < 5.00
CC(=O)N1c2ccc(-c3ccc(C(=O)N4CCN(C=O)CC4)cc3)cc2N(C(=O)OC(C)C)C[C@@H]1C | 6.00 to 7.00
CC(=O)N1c2ccc(-c3ccc(C(=O)NC4CC4)cc3)cc2N(C(=O)c2ccco2)C[C@@H]1C | 5.00 to 6.00
CC(=O)N1c2ccc(-c3ccc(C(=O)N4CCNCC4)cc3)cc2N(C(=O)C2CC2)C[C@@H]1C | 6.00 to 7.00
CC(=O)N1c2ccc(-c3ccc4c(ccn4C)c3)cc2N(C(=O)c2ccco2)C[C@@H]1C | 6.00 to 7.00
CC(=O)N1c2ccc(-c3cnn(C4CCCS(=O)(=O)C4)c3)cc2N(C(=O)OC2CCCCC2)C[C@@H]1C (some centres unmarked) | 6.00 to 7.00

* * *

target.entity: BRD4 BD1 (Homo sapiens)
assay.name: AlphaScreen binding assay, BRD4 Bromodomain 1
A collection of molecules and their measured IC50
recorded.endpoint: IC50

CC(=O)N1c2ccc(-c3cnn(CCO)c3)cc2N(c2nn(C)c3cc(F)ccc23)C[C@@H]1C | 100 to 1000 nM
CC(=O)N1c2ccc(-c3ccnc(N4CCOCC4)c3)cc2N(C(=O)c2ccco2)C[C@@H]1C | 100 to 1000 nM
CC(=O)N1c2ccc(-c3cnn(CC(N)=O)c3)cc2N(C(=O)C2CC2)C[C@@H]1C | 1000 to 10000 nM
CC(=O)N1c2ccc(-c3ccc(S(C)(=O)=O)cc3)cc2N(C(=O)c2cc3ccc(Cl)cc3[nH]2)CC1C (stereo not drawn) | 1000 to 10000 nM
CC(C)OC(=O)N1C[C@H](C)N(C(=O)C2CC2)c2ccc(-c3cnn(CC(=O)N(C)C4CC4)c3)cc21 | 1000 to 10000 nM
CC(=O)N1c2ccc(-c3ccc(S(C)(=O)=O)cc3)cc2N(C(=O)Nc2cccc(Cl)c2)C[C@@H]1C | > 10000 nM
CC(=O)N1c2ccc(-c3cnc(N)cn3)cc2N(C(=O)c2ccco2)C[C@@H]1C | 1000 to 10000 nM
CC(=O)N1c2ccccc2N(C(=O)c2cnn(-c3ccccc3)c2C(F)(F)F)C[C@@H]1C | > 10000 nM
COC(=O)N1c2ccc(-c3cnn(CC(=O)N(C)C)c3)cc2N(C(=O)OC(C)C)C[C@@H]1C | 100 to 1000 nM
CC(=O)N1c2ccc(-c3cccc(N4CCCCC4)c3)cc2N(C(=O)c2ccco2)C[C@@H]1C | 1000 to 10000 nM
COC(=O)N1c2ccc(-c3ccc(C(=O)N4CCNCC4)cc3)cc2N(C(=O)OC(C)C)C[C@@H]1C | 100 to 1000 nM
COC(=O)N1c2ccc(-c3cnn(C4CCNCC4)c3)cc2N(C(=O)Oc2ccccn2)C[C@@H]1C | 1000 to 10000 nM
CC(=O)N1c2ccc(-c3cnn(C4CCNC(=O)C4)c3)cc2N(C(=O)OC2CCC2)C[C@@H]1C (single isomer, unassigned) [Example I-176] | 100 to 1000 nM
C[C@H]1CN(C(=O)C2CC2)c2cc(-c3ccc(C4(O)COC4)cc3)ccc2N1C(=O)C1CC1 | 100 to 1000 nM
CNS(=O)(=O)c1ccc(-c2ccc3c(c2)N(C(=O)C2CCC2)C[C@H](C)N3C(C)=O)cc1 | 1000 to 10000 nM

* * *

target.entity: BRD4 BD2 (Homo sapiens, UniProt O60885)
assay.name: AlphaScreen binding assay, BRD4 Bromodomain 2
Listed next: entries and their corresponding IC50.
recorded.endpoint: IC50

CCS(=O)(=O)Nc1cccc(-c2ccc3c(c2)N(C(=O)OC2CCOCC2)C[C@H](C)N3C(C)=O)c1 [Example I-1228] | 50 to 500 nM
CC(=O)N1c2ccc(-c3cc(N4CCCS4(=O)=O)cc(C(F)(F)F)c3)cc2N(C(=O)OC(C)C)C[C@@H]1C [Example I-1166] | 50 to 500 nM
CC(=O)N1c2ccc(-c3ccc(C4(O)COC4)cc3)cc2N(C(=O)OC(C)C)C[C@@H]1C [Example I-473] | 50 to 500 nM
CC(=O)N1c2ccc(-c3cnn(CC(C)(C)O)c3)cc2N(C(=O)C2CC2)C[C@@H]1C [Example I-343] | 50 to 500 nM
CC(=O)N1c2ccc(-c3cnn(C4COC4)c3)cc2N(C(=O)OCC(F)(F)F)C[C@@H]1C [Example I-71] | < 50 nM
COC(=O)N1c2ccc(-c3cnn(CC4CCS(=O)(=O)CC4)c3)cc2N(C(=O)OC(C)C)C[C@@H]1C [Example I-624] | 50 to 500 nM
CC(=O)N1c2ccc(-c3ccc(S(C)(=O)=O)cc3)cc2N(C(=O)OC2CCCCC2)C[C@@H]1C [Example I-238] | < 50 nM
CC(=O)N1c2ccc(-c3ccc(C(=O)N4CCC(N)CC4)cc3)cc2N(C(=O)OC(C)C)C[C@@H]1C [Example I-590] | 50 to 500 nM
CC(=O)N1c2ccc(-c3cccc(NS(=O)(=O)N(C)C)c3)cc2N(C(=O)OC(C)C)C[C@@H]1C [Example I-1146] | 50 to 500 nM
CC(=O)N1c2ccc(-c3cccc(C(=O)N(C)C)c3)cc2N(C(=O)c2ccco2)C[C@@H]1C [Example I-848] | < 50 nM
CCOC(=O)N1C[C@H](C)N(C(C)=O)c2ccc(-c3cccc(S(=O)(=O)C4CC4)c3)cc21 [Example I-1088] | 50 to 500 nM
CC(=O)N1c2ccc(-c3ccc4c(c3)CCCN4S(C)(=O)=O)cc2N(C(=O)C2CC2)C[C@@H]1C [Example I-1157] | < 50 nM
CC(=O)N1c2ccc(-c3cnn(C4CC4)c3)cc2N(C(=O)Oc2ccc(C)cc2)C[C@@H]1C [Example I-264] | < 50 nM
COC(=O)N1c2ccc(-c3cnn(CC(C)(C)O)c3)cc2N(C(=O)Oc2ccccn2)C[C@@H]1C [Example I-1321] | 50 to 500 nM
CC(=O)N1c2ccccc2N(C(=O)c2ccc3cc[nH]c3c2)CC1C (centres unmarked) [Example I-760] | > 500 nM
CC(=O)N1c2ccc(-c3cccc4c3OCC4)cc2N(C(=O)c2ccco2)C[C@@H]1C [Example I-386] | 50 to 500 nM
CC(=O)N1c2ccc(-c3cnn(Cc4cncs4)c3)cc2N(C(=O)C2CC2)C[C@@H]1C [Example I-686] | 50 to 500 nM
CC(=O)N1c2ccc(-c3ccc(S(=O)(=O)N(C)C)cc3)cc2N(C(=O)OC2CCOCC2)C[C@@H]1C [Example I-1264] | 50 to 500 nM
CC(=O)N1c2ccc(-c3ccccc3NS(C)(=O)=O)cc2N(C(=O)c2ccco2)C[C@@H]1C [Example I-827] | > 500 nM
CC(=O)N1c2ccc(-c3cnn(CCO)c3)cc2N(C(=O)OC2CC(F)(F)C2)C[C@@H]1C [Example I-27] | 50 to 500 nM
CC(=O)N1c2ccc(-c3cnn(C4CC4)c3)cc2N(C(=O)Oc2ccc3nc(C)ccc3c2)C[C@@H]1C [Example I-513] | 50 to 500 nM
CC(=O)N1c2ccc(-c3cnn(C4COC4)c3)cc2N(C(=O)Oc2ccc(F)cc2)C[C@@H]1C [Example I-85] | < 50 nM
CC(=O)N1c2ccc(-c3ccc(S(C)(=O)=O)cc3)cc2N(C(=O)C(C)(C)C)C[C@@H]1C [Example I-243] | > 500 nM
CC(=O)N1c2ccc(-c3cccc(S(=O)(=O)N(C)C)c3)cc2N(C(=O)c2ccco2)C[C@@H]1C [Example I-845] | 50 to 500 nM
CC(=O)N1c2ccc(-c3cnn(C4CC4)c3)cc2N(c2nn(C)c3ccccc23)C[C@@H]1C [Example I-52] | < 50 nM
CC(=O)N1c2ccc(-c3ccc(N4CCOCC4)cc3)cc2N(C(=O)OC(C)C)C[C@@H]1C [Example I-1061] | 50 to 500 nM
CC(=O)N1c2ccc(-c3cnn(Cc4ccn(C)n4)c3)cc2N(C(=O)C2CC2)C[C@@H]1C [Example I-682] | 50 to 500 nM
CC(=O)N1c2ccc(-c3ccc(C(=O)N4CCCCC4)cc3)cc2N(C(=O)OC(C)C)C[C@@H]1C [Example I-537] | 50 to 500 nM
CC(=O)N1c2ccc(-c3ccc(S(=O)(=O)N(C)C)cc3)cc2N(C(=O)C2CCC2)C[C@@H]1C [Example I-1124] | 50 to 500 nM
